- testedTarget: T1, TTD (residues 134–285) of UHRF1 (Homo sapiens, UniProt Q96T88)
- T1 construct: TTD (residues 134–285); GST (N, cleaved yes); made in house; host or cells: E. coli BL21 (DE3)
- T1 sequence (Q96T88 134-285): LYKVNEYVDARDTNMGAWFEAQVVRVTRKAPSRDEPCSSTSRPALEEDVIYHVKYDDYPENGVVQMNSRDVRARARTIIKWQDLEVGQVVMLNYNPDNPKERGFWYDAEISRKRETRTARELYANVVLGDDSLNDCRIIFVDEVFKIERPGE
- assay: ITC, TTD titrated into Spacer variants and other UHRF1 fragments
- Format: binding
- runParameters: ITC, TTD in syringe
This listing pairs molecules with measured ΔS.
The answer is to be given in cal/mol/deg; state only the numeric part.

# annotated cases, reported ΔS shown
{"molecule": "Spacer: C-terminal spacer region of human UHRF1 (residues 587–674) (protein, left off: GST, end not stated, cleaved) PGPWTKEGKDRIKKLGLTMQYPEGYLEALANREREKENSKREEEEQQEGGFASPRTGKGKWKRKSAGGGPSRAGSPRRTSKKTKVEPY", "quantityUnit": "cal/mol/deg", "recordedValue": -12.3}
{"molecule": "SRA–Spacer: human UHRF1 residues 414–674 (protein, left off: GST, end not stated, cleaved) PSNHYGPIPGIPVGTMWRFRVQVSESGVHRPHVAGIHGRSNDGAYSLVLAGGYEDDVDHGNFFTYTGSGGRDLSGNKRTAEQSCDQKLTNTNRALALNCFAPINDQEGAEAKDWRSGKPVRVVRNVKGGKNSKYAPAEGNRYDGIYKVVKYWPEKGKSGFLVWRYLLRRDDDEPGPWTKEGKDRIKKLGLTMQYPEGYLEALANREREKENSKREEEEQQEGGFASPRTGKGKWKRKSAGGGPSRAGSPRRTSKKTKVEPY", "quantityUnit": "cal/mol/deg", "recordedValue": -13.3}
{"molecule": "SpacerR649A: mutation R649A of the Spacer (protein, left off: GST, end not stated, cleaved, mutation R649A of the Spacer) PGPWTKEGKDRIKKLGLTMQYPEGYLEALANREREKENSKREEEEQQEGGFASPRTGKGKWKAKSAGGGPSRAGSPRRTSKKTKVEPY", "quantityUnit": "cal/mol/deg", "recordedValue": -7.04}

Item under review: Spacer ∆642-651: internal deletion of the Spacer, residues 642–651 (protein, left off: GST, end not stated, cleaved) PGPWTKEGKDRIKKLGLTMQYPEGYLEALANREREKENSKREEEEQQEGGFASPRAGGGPSRAGSPRRTSKKTKVEPY . Reported ΔS?
9.58

ΔS for Spacer∆670-674: deletion of the Spacer, residues 670–674 (protein, left off: GST, end not stated, cleaved) PGPWTKEGKDRIKKLGLTMQYPEGYLEALANREREKENSKREEEEQQEGGFASPRTGKGKWKRKSAGGGPSRAGSPRRTSKKT ?
-9.46

Return reported ΔS; argument: SpacerK648D: mutation K648D of the Spacer (protein, left off: GST, end not stated, cleaved, mutation K648D of the Spacer) PGPWTKEGKDRIKKLGLTMQYPEGYLEALANREREKENSKREEEEQQEGGFASPRTGKGKWDRKSAGGGPSRAGSPRRTSKKTKVEPY
-5.07
